Each recorded value in this set is attributed to the supplement of paper PMC9170038.

Tested on: MS2 coat protein
experimental_details: apparent KD of MS2 coat protein; designed switch direction (-1 OFF switch, 1 ON switch): -1; higher = weaker reporter binding
applied_conditions: Eterna round: R95; input ligand: FMN 200 uM
measured_endpoint: apparent KD of MS2 coat protein (µM)
Answers are plain numbers, in µM.

Here is how some sequences turned out for apparent KD of MS2 coat protein.
sequence_string: AAGAAACAUGAGGAUCACCCAUGUGAGGAUAUGAGCAAGAAAAGAAAAGAAAGAAGAAUCAGAAGGCACAAAGG [salish99-ex1_r3_050] (puzzle: Exclusion 1)
apparent KD of MS2 coat protein, µM: 6.99
//
sequence_string: UGAAAGGUAGGAUAUACGAAGAAAAAGGGUAGAAUAAUAACACAUGAGGAUCACCCAUGUAGAAGGACCAAAGU [Mat - Exclusion 2 - Mod of my Tesla design - D10] (puzzle: Exclusion 2)
apparent KD of MS2 coat protein, µM: 0.0517
//
sequence_string: CUGGUCCGAGGAUAUAUGAUGUGAAACAUGAGGAUCACCCAUGUAAUAUUAUGGAUGGAAAUAGAAGGCGGACUAG [Mat - Exclusion 5 - JL mod - D36] (puzzle: Exclusion 5)
apparent KD of MS2 coat protein, µM: 0.0635

Batch lookup, apparent KD of MS2 coat protein per entry.
1. GCUUUUCUUUUCCUUUCUUACAUGAGGAUCACCCAUGUUUCUUGUCGUCCUCGCGUUGCUCGUCUGUCUGUCUGUUG [salish99_TOv1_r3_078] (puzzle: Sensor v3, turn-off variant 1)
2. UGUACUAACACGAGAGUGUUAGUACUAUAAGCUUGUGUUACAUGAGGAUCACCCAUGUCCUCAUAAGCUCGUCUUGA [Mat - Sensor v3 - Turn-off var 2 - D94] (puzzle: Sensor v3, turn-off variant 2)
3. UUUAAUUUUUUUUUUUUACAAGCUUUUUGCUCGUCUUAUACAUGAGGAUCACCCAUGUAGAUGGAGGAUAAAUUAUC [JMF 32] (puzzle: Sensor v3, turn-off variant 2)
4. GAUAGAGAGCAGGAUAUCUUGGGUAAGUGUUGUAGAGAAGGGCUCACAUGAGGAUCACCCAUGUGGUCCAAGAU [JL Dibiri mod 07] (puzzle: Exclusion 6)
5. CAGGACUGAGGAUAUGCGCGGACAAGAUCCUCAAUCCCAAAACAUGAGGAUCACCCAUGUAGAAGGCAGAAAUA [Edbein] (puzzle: Exclusion 2)

1. 0.0978
2. 0.0404
3. 0.0144
4. 0.0352
5. 0.0329
